The reported measurements were obtained from patent US20250206841A1.

Biological target: T1, human Trop-2 expressed on cell surface (human, UniProt P09758 27-323)
T1 sequence (looked up): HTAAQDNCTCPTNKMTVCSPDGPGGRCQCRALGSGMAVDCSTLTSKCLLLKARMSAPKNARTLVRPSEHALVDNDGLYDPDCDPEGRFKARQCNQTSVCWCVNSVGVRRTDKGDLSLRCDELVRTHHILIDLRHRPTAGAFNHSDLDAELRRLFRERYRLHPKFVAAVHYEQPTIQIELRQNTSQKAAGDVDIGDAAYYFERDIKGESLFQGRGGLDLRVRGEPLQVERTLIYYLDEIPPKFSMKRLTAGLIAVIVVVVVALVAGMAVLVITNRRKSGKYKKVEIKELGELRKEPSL
Assay: cell-based or functional assay
quantity-name: Internalization %, MDA-MB-231, 2 µg/ml, 2 h (%)
# output: bare number, implied unit %

5D4-2 (antibody, V domains shown) VH: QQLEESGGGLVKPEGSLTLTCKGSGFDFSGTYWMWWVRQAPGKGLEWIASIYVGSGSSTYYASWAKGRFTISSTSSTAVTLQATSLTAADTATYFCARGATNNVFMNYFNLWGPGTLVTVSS VL: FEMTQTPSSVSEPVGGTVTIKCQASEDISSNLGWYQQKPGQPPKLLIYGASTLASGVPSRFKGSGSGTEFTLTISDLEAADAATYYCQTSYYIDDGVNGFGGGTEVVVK | 57

Now look at this entry.
Ask | Could you share which Internalization %, MDA-MB-231, 2 µg/ml, 2 h value was measured for 1D10 (antibody, V domains shown, Rabbit-derived clone; LEM construct: VH + rabbit IgG CH1 + human IgG1 CH2-CH3) VH: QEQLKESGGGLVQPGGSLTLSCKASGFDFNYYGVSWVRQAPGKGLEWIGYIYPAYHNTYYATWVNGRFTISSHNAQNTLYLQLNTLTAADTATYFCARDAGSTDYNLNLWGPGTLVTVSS VL: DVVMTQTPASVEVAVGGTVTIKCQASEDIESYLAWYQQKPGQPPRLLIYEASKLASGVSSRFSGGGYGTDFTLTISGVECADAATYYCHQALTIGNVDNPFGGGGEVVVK ?
Reply | 39
